Form field: bioavailability (one value per entry).
# experiment-notes: Oral bioavilability in ICR mouse at 1 mg/kg
# Type: ADME, organism-based
# measurement-conditions: in vivo
Form entry: value (%) — number only.

Quick check: bioavailability of `O=C(O)CO[C@H]1CCN(c2cc(C(F)(F)F)cc(C(F)(F)F)c2)C1` ?
58

Then there is this compound:
Which bioavailability value belongs to `O=C(O)CO[C@@H]1CCN(c2cc(C(F)(F)F)cc(C(F)(F)F)c2)C1` ?
51

###

# experiment-notes: Cmax in ICR mouse at 1 mg/kg, po
# Assay type: ADME, organism-based
# Set-up: dose 1 mg/kg, route po
# measurement-conditions: in vivo
metric-name: Cmax

Quick one: Cmax of `O=C(O)CO[C@H]1CCN(c2cc(C(F)(F)F)cc(C(F)(F)F)c2)C1` ?
2910 ng/mL

---
Could you tell me which Cmax is on file for `O=C(O)CO[C@@H]1CCN(c2cc(C(F)(F)F)cc(C(F)(F)F)c2)C1` ?
2920 ng/mL
